Tested on: S. cerevisiae Mot1-301 ts growth rescue, BacTiter-Glo ATP luminescence
Experiment: restored Mot1-301 yeast growth at 38.5C – whole organism, S. cerevisiae, Mot1-301 ts mutant, luminescence, dose retest, SUMOylation pathway inhibitor project, confirmation (AID 463204);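 note: growth at restrictive 38.5 degrees C of Mot1-301 OY566 strain; actives raise luminescence by restoring growth of the ts mutant at high temperature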
The source made the active and inactive calls.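 Rule for the calls: active = AC50 no more than ten times the top concentration tested, that is within one log above it; inconclusive = flat curve fit with activity between 30% and 70%, or invalid poor fit; inactive = AC50 beyond ten times the top tested dose.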
endpoint-label: AC50

1) O=C(NC1CCCC1)C(c1cccs1)N(C(=O)c1ccno1)c1ccccc1 (stereo unspecified)	> 42 µM (inactive)

List reported AC50 for each of these compounds:
1. COc1ccc(Oc2c(C)oc3cc(OC(=O)N(C)C)ccc3c2=O)cc1
2. Cc1cc(C)nc(-n2nc(C)cc2NC(=O)CNCc2ccccc2)n1
3. COc1ccc(OCC(=O)O/N=C(\N)Cc2ccc(Cl)cc2)cc1
4. CCOC(=O)c1ccc(NC(=O)NCc2ccncc2)cc1
5. COc1ccc(-c2nnc(-c3cc4c(ccc5ccccc54)oc3=O)o2)cc1

*A*
1: > 42 µM (inactive); 2: > 42 µM (inactive); 3: > 42 µM (inactive); 4: > 42 µM (inactive); 5: > 42 µM (inactive)

All values here come from PubChem BioAssay AID463204.
